Biological target: T1, Human Nectin-4 (human, UniProt Q96NY8 32-349, limits assumed)
T1 construct: Protein immobilised on the SPR chip; also called target protein
T1 sequence: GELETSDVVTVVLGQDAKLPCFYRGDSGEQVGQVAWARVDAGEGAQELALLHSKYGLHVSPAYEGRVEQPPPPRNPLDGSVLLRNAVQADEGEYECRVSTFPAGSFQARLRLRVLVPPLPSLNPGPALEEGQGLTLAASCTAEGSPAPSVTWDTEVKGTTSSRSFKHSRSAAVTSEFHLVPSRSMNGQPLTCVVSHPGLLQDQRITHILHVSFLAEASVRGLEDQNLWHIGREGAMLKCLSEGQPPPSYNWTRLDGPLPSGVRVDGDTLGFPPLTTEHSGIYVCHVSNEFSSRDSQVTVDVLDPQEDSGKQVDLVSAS
Assay: Table 2B (DELFIA or SPR)
Bridges are numbered along the chain shown (N, C = ends). Primed or numbered codes have the meaning given here. Where no end group is shown, it is not given here. [ ]: non-standard residue; d: D form. The star is where a group is joined. Biotin = O=C1N[C@H]2[C@H](CS[C@H]2CCCCC(=O)*)N1; Cit = NC(=O)NCCC[C@H](N)C(=O)O; PEG4″ = 4(ethylene glycol)
measured metric: log10 of Kd (log10 of the value in nM)
Friendly reminder: values = log10 of Kd, unit nM.

Ask | Give a short answer stating reported log10 of Kd for Ac-CEYDEEFFTGLKRLRGGDICYYIKKKFKKVPKLCIEEILDKLGC-OH (designed binder, disulfide 1-34, 20-44) [C31] .
Reply | 0.12

Ask | Complete the entry with log10 of Kd for Ac-CEYDEEFFKALKRLRGGDICYYIKKKFKKVPKLCIEEILEKLGC-OH (designed binder, disulfide 1-34, 20-44) [C76]
Reply | -0.28

Ask | Given {Biotin-PEG4″}-CDYDEEFFTALKRLRGDDICEYIQASFQYLPGLCIEEILDNLGCS-OH (designed binder, disulfide 1-34, 20-44) [C191] , respond with its log10 of Kd.
Reply | 0.15

Ask | Report log10 of Kd, nothing else, for this binder: {Biotin-PEG4″}-CDYDEEFFTALKRLRGGDICEYIQASFQYLPGLCIEEILDNLGCS-OH (designed binder, disulfide 1-34, 20-44) [C188]
Reply | 0.20

Ask | Identify log10 of Kd associated with the binder {Biotin-PEG4″}-CDYDEQFFTALKRLRGADICEYIQASFQYLPGQCIEEILDNLGCS (designed binder, disulfide 1-34, 20-44) [C209]
Reply | 0.10

Ask | Report log10 of Kd for Ac-CEYDEEFFEGLKKLRGGDICYYIKKKFKKVPDLCIEEILDKLGC-OH (designed binder, disulfide 1-34, 20-44) [C30]
Reply | 1.40

Ask | Input {Biotin-PEG4″}-CEYDEEFFTALA[Cit]LRGGDICSYIQAKFQYLPGLCIEEILDNLGCS-OH (designed binder, disulfide 1-34, 20-44) [C175] , output reported log10 of Kd.
Reply | 0.36

Ask | Identify the reported log10 of Kd for the following entry. {Biotin-PEG4″}-CEYDEEFFTALKRLRGDDICYYIQASFQYLPGLCIEEILDNLGCS-OH (designed binder, disulfide 1-34, 20-44) [C180]
Reply | 0.43

Ask | Read off the recorded log10 of Kd for {Biotin-PEG4″}-CDYDEQFFTALKRLRGADICEYIQASFQYLPGLCIEEILDNLGCS-OH (designed binder, disulfide 1-34, 20-44) [C207]
Reply | 0.03

Ask | Please give the documented log10 of Kd of Ac-CEYDEEFFTALKRLRGGDICYYIKKKFKKVPKLCIEEILEKLGC-OH (designed binder, disulfide 1-34, 20-44) [C79]
Reply | -0.42

Source: patent US20260151519A1
